Test system: ALP in normal human articular chondrocytes (NHACs)
Assay: Alkaline Phosphatase (ALP) activity assay (staining and quantitation) in NHACs, prevention of chondrocyte hypertrophy
Type: cell-based
Settings: Chondrocyte, 288 h, value in parentheses, human IL-1 beta 10 ng/mL, 12 days, read-out: ALP in NHAC (% Efficacy)
Description: The compounds of the present invention were evaluated in the Alkaline Phosphatase (ALP) activity assay to determine the ability of the compounds to prevent chondrocyte hypertrophy in normal human articular chondrocytes (NHACs). […] The staining was imaged by fluorescent microscopy, using the 561 nm wavelength, and/or quantified by high content imaging with the Image press Confocal (Molecular Devices, Sunnyvale, Calif.). […]
Emax below 60% gives 0; Emax at or above it gives 1.

[[record]]
molecule = "Cn1nc(C(F)(F)F)cc1[C@H]1[C@H]2O[C@H](C[C@@H]2O)[C@@H]1C(=O)Nc1cc(C(F)(F)F)ccn1 (racemic)"
label_value = 1

[[record]]
molecule = "CCOc1ccc(NC(=O)[C@@H]2[C@@H](c3cccc(C(F)(F)F)c3)[C@H]3O[C@@H]2C[C@@H]3O)cc1C(F)(F)F (racemic)"
label_value = 1

[[record]]
molecule = "O=C(Nc1cccc(C(F)(F)F)c1)[C@@H]1[C@@H](c2cccc(C(F)(F)F)c2)[C@H]2O[C@@H]1C[C@@H]2O (racemic)"
label_value = 1

[[record]]
molecule = "COc1cc([C@H]2[C@H]3O[C@H](C[C@@H]3O)[C@@H]2C(=O)Nc2cc(C(F)(F)F)ccn2)ccn1 (racemic)"
label_value = 1

[[record]]
molecule = "Cc1ccc(NC(=O)[C@@H]2[C@@H](c3cn(C(C)C)nc3C(F)(F)F)[C@H]3O[C@@H]2C[C@@H]3O)cc1C(F)(F)F (racemic)"
label_value = 0


----------
Biological target: ALP in normal human articular chondrocytes (NHACs)
Experiment: Alkaline Phosphatase (ALP) activity assay (staining and quantitation) in NHACs, prevention of chondrocyte hypertrophy
Type: cell-based
Settings: human IL-1 beta 10 ng/mL, 12 days, Fast Blue RR staining, high content imaging, read-out: ALP in NHAC IC50
Procedure: The compounds of the present invention were evaluated in the Alkaline Phosphatase (ALP) activity assay to determine the ability of the compounds to prevent chondrocyte hypertrophy in normal human articular chondrocytes (NHACs). […] The staining was imaged by fluorescent microscopy, using the 561 nm wavelength, and/or quantified by high content imaging with the Image press Confocal (Molecular Devices, Sunnyvale, Calif.). […]
IC50 values for the compounds below.
Measured Endpoint: IC50 (µM)

[[record]]
compound = "O=C(Nc1ccc(C(F)(F)F)c(Cl)n1)[C@@H]1[C@@H](c2cccc(C(F)(F)F)c2)[C@H]2O[C@@H]1C[C@@H]2O (single isomer, unassigned) [Example 25b]"
measured_endpoint = "IC50"
value_measured = 0.84

[[record]]
compound = "N#Cc1ccc(C(F)(F)F)cc1NC(=O)[C@@H]1[C@@H](c2cccc(C(F)(F)F)c2)[C@H]2O[C@@H]1C[C@@H]2O (single isomer, unassigned) [Example 48b]"
measured_endpoint = "IC50"
value_measured = 1.9

[[record]]
compound = "Cn1cc([C@H]2[C@H]3O[C@H](C[C@@H]3O)[C@@H]2C(=O)Nc2cc(C(F)(F)F)c(Cl)cn2)c(C(F)(F)F)n1 (single isomer, unassigned) [Example 36a]"
measured_endpoint = "IC50"
value_measured = 9.4

[[record]]
compound = "COc1ccc(C(F)(F)F)cc1NC(=O)[C@H]1[C@H](c2cn(C)nc2C(F)(F)F)[C@@H]2O[C@H]1C[C@H]2O (single isomer, unassigned) [Example 33b]"
measured_endpoint = "IC50"
value_measured = 3.1

[[record]]
compound = "Cn1cc([C@H]2[C@H]3O[C@H](C[C@@H]3O)[C@@H]2C(=O)Nc2cc(C(F)(F)F)ccc2C#N)c(C(F)(F)F)n1 (single isomer, unassigned) [Example 49b]"
measured_endpoint = "IC50"
value_measured = 23


----------
Biological target: ALP in normal human articular chondrocytes (NHACs)
Assay: Alkaline Phosphatase (ALP) activity assay (staining and quantitation) in NHACs, prevention of chondrocyte hypertrophy
Format: cell-based
Conditions: human IL-1 beta 10 ng/mL, 12 days, Fast Blue RR staining, high content imaging, read-out: ALP in NHAC IC50
Procedure: The compounds of the present invention were evaluated in the Alkaline Phosphatase (ALP) activity assay to determine the ability of the compounds to prevent chondrocyte hypertrophy in normal human articular chondrocytes (NHACs). […] The staining was imaged by fluorescent microscopy, using the 561 nm wavelength, and/or quantified by high content imaging with the Image press Confocal (Molecular Devices, Sunnyvale, Calif.). […]
pIC50: −log10 of the molar value.
Measured Endpoint: pIC50

[[record]]
molecule = "O=C(Nc1ccc(C(F)(F)F)c(Cl)n1)[C@@H]1[C@@H](c2cccc(C(F)(F)F)c2)[C@H]2O[C@@H]1C[C@@H]2O (single isomer, unassigned) [Example 25a]"
tgt = "ALP in normal human articular chondrocytes (NHACs)"
measured_endpoint = "pIC50"
qualifying_sign = "="
value_measured = 6.26

[[record]]
molecule = "Cn1cc([C@H]2[C@H]3O[C@H](C[C@@H]3O)[C@@H]2C(=O)Nc2cc(C(F)(F)F)ccn2)c(C(F)(F)F)n1 (single isomer, unassigned) [Example 38b]"
tgt = "ALP in normal human articular chondrocytes (NHACs)"
measured_endpoint = "pIC50"
qualifying_sign = "<"
value_measured = 4.52

[[record]]
molecule = "Cn1cc([C@H]2[C@H]3O[C@H](C[C@@H]3O)[C@@H]2C(=O)Nc2cc(C(F)(F)F)ccc2C#N)c(C(F)(F)F)n1 (single isomer, unassigned) [Example 49a]"
tgt = "ALP in normal human articular chondrocytes (NHACs)"
measured_endpoint = "pIC50"
qualifying_sign = "="
value_measured = 5.72

[[record]]
molecule = "Cn1cc([C@H]2[C@H]3O[C@H](C[C@@H]3O)[C@@H]2C(=O)Nc2cc(C(F)(F)F)ccn2)c(C(F)(F)F)n1 (single isomer, unassigned) [Example 38a]"
tgt = "ALP in normal human articular chondrocytes (NHACs)"
measured_endpoint = "pIC50"
qualifying_sign = "="
value_measured = 5.23

[[record]]
molecule = "Cn1cc([C@H]2[C@H]3O[C@H](C[C@@H]3O)[C@@H]2C(=O)Nc2cc(C(F)(F)F)c(Cl)cn2)c(C(F)(F)F)n1 (single isomer, unassigned) [Example 36b]"
tgt = "ALP in normal human articular chondrocytes (NHACs)"
measured_endpoint = "pIC50"
qualifying_sign = "="
value_measured = 4.77


----------
Tested on: ALP in normal human articular chondrocytes (NHACs)
Experiment: Alkaline Phosphatase (ALP) activity assay (staining and quantitation) in NHACs, prevention of chondrocyte hypertrophy
Type: cell-based
Settings: Chondrocyte, 288 h, human IL-1 beta 10 ng/mL, 12 days, Fast Blue RR staining, high content imaging, read-out: ALP in NHAC IC50
Experimental: The compounds of the present invention were evaluated in the Alkaline Phosphatase (ALP) activity assay to determine the ability of the compounds to prevent chondrocyte hypertrophy in normal human articular chondrocytes (NHACs). […] The staining was imaged by fluorescent microscopy, using the 561 nm wavelength, and/or quantified by high content imaging with the Image press Confocal (Molecular Devices, Sunnyvale, Calif.). […]
IC50 values for the molecules below.
Measured Endpoint: IC50 (µM)

[[record]]
molecule = "Cn1cc([C@H]2[C@H]3O[C@H](C[C@@H]3O)[C@@H]2C(=O)Nc2cc(C(F)(F)F)cc(Cl)n2)c(C(F)(F)F)n1 (racemic)"
value_measured = 9.8

[[record]]
molecule = "CC(C)n1cc([C@H]2[C@H]3O[C@H](C[C@@H]3O)[C@@H]2C(=O)Nc2cccc(C(F)(F)F)c2)c(C(F)(F)F)n1 (racemic)"
value_measured = 14

[[record]]
molecule = "Cc1ccc(NC(=O)[C@@H]2[C@@H](c3cn(C(C)C)nc3C(F)(F)F)[C@H]3O[C@@H]2C[C@@H]3O)cc1C(F)(F)F (racemic)"
value_measured = 19


----------
System: ALP in normal human articular chondrocytes (NHACs)
Test: Alkaline Phosphatase (ALP) activity assay (staining and quantitation) in NHACs, prevention of chondrocyte hypertrophy
Assay type: cell-based
Settings: Chondrocyte, 288 h, human IL-1 beta 10 ng/mL, 12 days, Fast Blue RR staining, high content imaging, read-out: ALP in NHAC IC50
pIC50: −log10 of the molar value.
Measured Endpoint: pIC50

[[record]]
molecule = "CCOc1ccc(NC(=O)[C@@H]2[C@@H](c3cccc(C(F)(F)F)c3)[C@H]3O[C@@H]2C[C@@H]3O)cc1C(F)(F)F (racemic)"
measured_endpoint = "pIC50"
value_measured = 4.85

[[record]]
molecule = "O=C(Nc1cc(F)cc(C(F)(F)F)c1)[C@@H]1[C@@H](c2cccc(C(F)(F)F)c2)[C@H]2O[C@@H]1C[C@@H]2O (racemic)"
measured_endpoint = "pIC50"
value_measured = 4.89

[[record]]
molecule = "Cn1cc([C@H]2[C@H]3O[C@H](C[C@@H]3O)[C@@H]2C(=O)Nc2cccc(C(F)(F)F)c2)c(C(F)(F)F)n1 (racemic)"
measured_endpoint = "pIC50"
value_measured = 5.14

[[record]]
molecule = "Cc1ccc(NC(=O)[C@@H]2[C@@H](c3cc(C(F)(F)F)nn3C)[C@H]3O[C@@H]2C[C@@H]3O)cc1C(F)(F)F (racemic)"
measured_endpoint = "pIC50"
value_measured = 4.89

[[record]]
molecule = "Cn1cc([C@H]2[C@H]3O[C@H](C[C@@H]3O)[C@@H]2C(=O)Nc2cc(Cl)cc(C(F)(F)F)c2)c(C(F)(F)F)n1 (racemic)"
measured_endpoint = "pIC50"
value_measured = 5.19

[[record]]
molecule = "O=C(Nc1cccc(C(F)(F)F)c1)[C@@H]1[C@@H](c2cccc(C(F)(F)F)c2)[C@H]2O[C@@H]1C[C@@H]2O (racemic)"
measured_endpoint = "pIC50"
value_measured = 4.92

